Recorded melting point by entry

Look over these answered cases.
INSERT INTO assay_data (molecule, measured) VALUES
  ('Cl.O=c1cc(OCc2ccc(F)cn2)ccn1-c1ccc2sc3c(c2c1)CCNC3 [Example 66]', '278 to 280 °C'),
  ('Cl.O=c1cc(OCc2ccc(F)cn2)ccn1-c1ccc2sc3c(c2c1)CNCCC3 [Example 119]', '170 to 172 °C');

melting point reported for this molecule Cl.O=c1cc(OCc2ccc(C(F)(F)F)nn2)ccn1-c1ccc2c3c(oc2c1)CCNC3 [Example 113] : 289 to 291 °C

melting point reported for this molecule Cl.O=c1cc(OCc2ccc(F)cn2)ccn1-c1ccc2sc3c(c2c1)CCNCC3 [Example 69] : 228 to 230 °C
